Tested on: 885512-296-R-J2-PDC complex spheroid viability;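 also: spheroids exposed to the compounds for one week; percent of tumor spheroid viability relative to DMSO vehicle control wells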
Test: Anticancer human tumor 885512-296-R-J2-PDC patient-derived breast carcinoma cell line growth inhibition [GQUAD]
Conditions: second compound 0.316 µM; first compound 0.1 µM; stronger effect = lower value
Excerpt: DNA G-quadruplex Stabilizer Agents in Combinations in Complex Spheroids A high-throughput screen of multi-cell type tumor spheroids was designed to identify active combinations of DNA G-quadruplex stabilizer agents and targeted small molecules. […] Compounds. […] If the clinical Cmax for an agent had not been determined, the highest concentration tested was 10 microM. […]
measurement_name: viability, T/C (%)
Field: numeric (%). Do not append units.

# count of solved cases: 2
CC1COCCN1c1cc(-c2ccnn2C)c2ccnc(-c3ccn[nH]3)c2n1 (stereo not drawn) + Cc1cnc(CNC(=O)c2c(=O)c3ccc(N4CCCN(C)CC4)nc3n3c2sc2ccccc23)cn1	4.72
CC1COCCN1c1cc(C2(O)CC3CCC(C2)O3)c2cnn(-c3ccn[nH]3)c2n1 (stereo not drawn) + Cc1cnc(CNC(=O)c2c(=O)c3ccc(N4CCCN(C)CC4)nc3n3c2sc2ccccc23)cn1	4.72

In the following, a different compound is considered.
Quick one: give measured viability, T/C for C=CCn1c(=O)c2cnc(Nc3ccc(N4CCN(C)CC4)cc3)nc2n1-c1cccc(C(C)(C)O)n1 + Cc1[nH]c2ccc(F)cc2c1-c1nc2c3cccnc3c3ncccc3c2[nH]1
98

Ref: PubChem BioAssay AID2060490
